Catalogue of protein stability index values
B1: TPPP (parent)
chain: LCKDCQVIDGRNVTVTDVDIVFSK

Variants of: B1
Assay: protein stability index of a GFP-peptide fusion (GPS, HEK-293T) (PSI 1-6); higher = more stable;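 also: lentivirally expressed fusions sorted by FACS into six bins by GFP to DsRed ratio, PSI derived from sequencing read proportions per bin multiplied by bin number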
Conditions: c terminus: a fixed tail appended
Lab note: jot the number down without any unit.

G10Q ... 2.47

Just so you know, measured protein stability index for D9A came out at 1.96

Just so you know, measured protein stability index for V21N came out at 3.45

Just so you know, measured protein stability index for T16G came out at 2.01

Just so you know, measured protein stability index for V13Y came out at 2.37

Just so you know, measured protein stability index for V18E came out at 3.52

Just so you know, measured protein stability index for V18P came out at 2.73

Just so you know, measured protein stability index for I8M came out at 2.81

Just so you know, measured protein stability index for V21A came out at 3.47

Just so you know, measured protein stability index for T14P came out at 2.75

Just so you know, measured protein stability index for C5Y came out at 2.94

Just so you know, measured protein stability index for D17G came out at 2.14

Just so you know, measured protein stability index for D9Y came out at 2.27

Hello, the source for this data is the supplement of paper PMC10567573, in case you need it.
